target: Full-length human BTK (Homo sapiens (Human)); experiment: BTK inhibitory activity, Reaction Biology Corporation kinase assay; conditions: IC50(nM) BTK, (d) ATP concentration 50 μM
Sequence (Q06187 whole entry): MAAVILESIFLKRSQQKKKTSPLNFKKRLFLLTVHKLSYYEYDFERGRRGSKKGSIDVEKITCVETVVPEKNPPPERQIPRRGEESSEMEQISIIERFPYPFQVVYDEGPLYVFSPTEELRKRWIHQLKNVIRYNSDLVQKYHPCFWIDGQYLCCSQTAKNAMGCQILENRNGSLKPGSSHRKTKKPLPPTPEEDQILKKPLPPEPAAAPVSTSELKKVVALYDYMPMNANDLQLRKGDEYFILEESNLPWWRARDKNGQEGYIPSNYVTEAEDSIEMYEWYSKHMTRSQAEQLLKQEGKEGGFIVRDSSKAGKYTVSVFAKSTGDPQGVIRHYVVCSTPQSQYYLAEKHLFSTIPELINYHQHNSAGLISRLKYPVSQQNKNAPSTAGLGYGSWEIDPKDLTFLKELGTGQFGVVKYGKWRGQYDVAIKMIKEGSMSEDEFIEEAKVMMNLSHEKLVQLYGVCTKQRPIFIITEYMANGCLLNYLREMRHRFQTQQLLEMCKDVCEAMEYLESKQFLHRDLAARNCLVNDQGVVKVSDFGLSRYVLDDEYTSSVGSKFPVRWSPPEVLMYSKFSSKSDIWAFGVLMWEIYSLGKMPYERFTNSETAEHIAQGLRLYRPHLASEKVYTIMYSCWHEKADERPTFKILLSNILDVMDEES
Below, each of the compounds is paired with its reported IC50 value.
Entry rule: numbers only, all in nM.

Observe how each entry below is paired with its result.
(Q) // query IC50 value for entry COc1cccc(Oc2ccc(-c3nn(C4CCC(CO)OC4)c4ncnc(N)c34)cc2)c1F (single isomer, unassigned) [Example 30 Peak2-1]
(A) 1.8

(Q) What do you get for COc1cccc(Oc2ccc(-c3nn(C4CCC(CO)OC4)c4ncnc(N)c34)cc2)c1F (single isomer, unassigned) [Example 30 Peak1-1] ?
(A) 3.8

(Q) What do you get for COc1cccc(Oc2ccc(-c3nn(C4CCC(CO)OC4)c4ncnc(N)c34)cc2)c1F (single isomer, unassigned) [Example 30 Peak1-2] ?
(A) 8.5

Others:
(Q) // query IC50 value for entry COc1cccc(Oc2ccc(-c3nn(C4CCC(CO)OC4)c4ncnc(N)c34)cc2)c1F (single isomer, unassigned) [Example 30 Peak2-2]
(A) 5
